- System: HS-Sch-2
- Assay info: relative IC50 (inflection point of fitted dose-response curve, CellTiter-Glo viability, 72 h; top asymptote may be below 50% inhibition); higher = less potent
relative IC50 for assorted compounds
// units = µM; emit number, no label

Illustrative cases are given below, each with its answer.
CCN(CC)CCCC(C)Nc1c2ccc(Cl)cc2nc2ccc(OC)cc12 (centres undefined) [Mepacrine] ... 1.44
COc1c(OCCCN2CCOCC2)ccc2c1N=C(NC(=O)c1cnc(N)nc1)N1CCN=C21 [Copanlisib] ... 0.113
COc1cc(N2CCN(C)CC2)ccc1Nc1nccc(-c2cn(C)c3cnccc23)n1 [AZ191] ... 3.35

In the following, a different compound is considered.
If you can, please state the reported relative IC50 value of CCc1c2c(nc3ccc(O)cc13)-c1cc3c(c(=O)n1C2)COC(=O)[C@]3(O)CC [SN-38] . 0.00922

====

- System: ST8814
- Assay info: relative IC50 (inflection point of fitted dose-response curve, CellTiter-Glo viability, 72 h; top asymptote may be below 50% inhibition); higher = less potent
relative IC50 for assorted compounds

Illustrative cases are given below, each with its answer.
CCS(=O)(=O)c1cccc(-c2cc(C(=O)NC3CCN(C)CC3)c(C)c3[nH]c4ncc(C)cc4c23)c1 ... 0.267 µM
Nc1ncnc2c1c(COc1cccc(Cl)c1)nn2C1CCOCC1 ... > 10 µM
CO[C@H]1C[C@@H]2CC[C@@H](C)[C@@](O)(O2)C(=O)C(=O)N2CCCC[C@H]2C(=O)O[C@H]([C@H](C)C[C@@H]2CC[C@@H](OC(=O)C(C)(CO)CO)[C@H](OC)C2)CC(=O)[C@H](C)/C=C(\C)[C@@H](O)[C@@H](OC)C(=O)[C@H](C)C[C@H](C)/C=C/C=C/C=C/1C ... 0.000561 µM
CC(=O)c1c(C)c2cnc(Nc3ccc(N4CCNCC4)cn3)nc2n(C2CCCC2)c1=O ... 1.74 µM
Oc1ncnc2[nH]ncc12 ... > 10 µM
Cc1nc(Nc2ncc(C(=O)Nc3c(C)cccc3Cl)s2)cc(N2CCN(CCO)CC2)n1 ... 0.0439 µM

In the following, a different compound is considered.
If you can, please state the reported relative IC50 value of CC[C@]1(O)C[C@H]2CN(CCc3c([nH]c4ccccc34)[C@@](C(=O)OC)(c3cc4c(cc3OC)N(C=O)[C@H]3[C@@](O)(C(=O)OC)[C@H](OC(C)=O)[C@]5(CC)C=CCN6CC[C@]43[C@@H]65)C2)C1 . 0.00695 µM

====

- System: HSC2 (primary human Schwann cells)
- Assay info: drug sensitivity score (DSS, CellTox-Green cytotoxicity, 72 h) (DSS (dimensionless)); higher = more cytotoxic; extreme values may be limits of the assay
Readout type: drug sensitivity score
I'd appreciate a reply containing only the number, no unit.

Illustrative cases are given below, each with its answer.
CC(=O)[C@]1(O)Cc2c(O)c3c(c(O)c2[C@@H](O[C@H]2C[C@H](N)[C@H](O)[C@H](C)O2)C1)C(=O)c1ccccc1C3=O [Idarubicin] (max concentration tested 1000 nM) ... 7.65
Cc1cc2c(F)c(Oc3ncnn4cc(OC[C@@H](C)O)c(C)c34)ccc2[nH]1 [Brivanib] (max concentration tested 1000 nM) ... 0
Cn1cc(CNCC2CCN(c3ncc(C(=O)NO)cn3)CC2)c2ccccc21 [Quisinostat] (max concentration tested 1000 nM) ... 7.35
Cc1c(CN2CCN(C(=O)[C@H](C)O)CC2)sc2c(N3CCOCC3)nc(-c3cnc(N)nc3)nc12 [GDC-0980] (max concentration tested 10000 nM) ... 0

Under HSC2 (primary human Schwann cells): drug sensitivity score value of O=S(=O)(c1cccc2cnccc12)N1CCCNCC1 [Fasudil] (max concentration tested 50000 nM) ? 0

Now this one: O=C(c1ccc(OCCN2CCCCC2)cc1)c1c(-c2ccc(O)cc2)sc2cc(O)ccc12 [Raloxifene] (max concentration tested 10000 nM) 0

Now this one: Oc1nc(-c2ccc(C(F)(F)F)cc2)nc2c1CSCC2 [XAV-939] (max concentration tested 10000 nM) 0

Now this one: Cc1ccc(-c2cc(C(F)(F)F)nn2-c2ccc(S(N)(=O)=O)cc2)cc1 [Celecoxib] (max concentration tested 10000 nM) 0

Now this one: Cn1cc(C2=C(c3cn(C4CCN(Cc5ccccn5)CC4)c4ccccc34)C(=O)NC2=O)c2ccccc21 [Enzastaurin] (max concentration tested 10000 nM) 0

Now this one: CN(C)/N=N/c1[nH]cnc1C(N)=O [Dacarbazine] (max concentration tested 10000 nM) 0

Now this one: O=C(/C=C/c1cccnc1)NCCCCC1CCN(C(=O)c2ccccc2)CC1 [Daporinad] (max concentration tested 1000 nM) 0

Now this one: CC(=O)Nc1ccc(C(=O)Nc2ccccc2N)cc1 [Tacedinaline] (max concentration tested 1000 nM) 0

Now this one: COc1ccc(-c2cc3c(C)nc(N)nc3n([C@H]3CC[C@H](OCCO)CC3)c2=O)cn1 (max concentration tested 10000 nM) 2.71

The values you see were collected from the supplement of paper PMC5579334.
